Test Conditions: in isobutanol, 293.15 K
Property Measured: solubility (mole fraction)
Kindly provide the number alone.

Q: For CC(=O)N[C@H](C(=O)O)C(C)C , write its solubility (mole fraction).
Ans: 0.0465

----------
Test Conditions: in ethyl acetate, 288.15 K
Property Measured: solubility (mole fraction)
Kindly provide the number alone.

Q: For CC(=O)N[C@H](C(=O)O)C(C)C , write its solubility (mole fraction).
Ans: 0.00342

----------
Test Conditions: in 2-butanone, 293.15 K
Property Measured: solubility (mole fraction)
Kindly provide the number alone.

Q: For CC(=O)N[C@H](C(=O)O)C(C)C , write its solubility (mole fraction).
Ans: 0.00907

----------
Test Conditions: in n-propanol, 313.15 K
Property Measured: solubility (mole fraction)
Kindly provide the number alone.

Q: For CC(=O)N[C@H](C(=O)O)C(C)C , write its solubility (mole fraction).
Ans: 0.13

----------
Test Conditions: in 2-butanone, 298.15 K
Property Measured: solubility (mole fraction)
Kindly provide the number alone.

Q: For CC(=O)N[C@H](C(=O)O)C(C)C , write its solubility (mole fraction).
Ans: 0.0112

----------
Test Conditions: in ethyl acetate, 293.15 K
Property Measured: solubility (mole fraction)
Kindly provide the number alone.

Q: For CC(=O)N[C@H](C(=O)O)C(C)C , write its solubility (mole fraction).
Ans: 0.00403

----------
Test Conditions: in n-propanol, 318.15 K
Property Measured: solubility (mole fraction)

Q: For CC(=O)N[C@H](C(=O)O)C(C)C , write its solubility (mole fraction).
Ans: 0.151

----------
Test Conditions: in acetone, 283.15 K
Property Measured: solubility (mole fraction)
Kindly provide the number alone.

Q: For CC(=O)N[C@H](C(=O)O)C(C)C , write its solubility (mole fraction).
Ans: 0.0102

----------
Test Conditions: in methyl acetate, 323.15 K
Property Measured: solubility (mole fraction)
Kindly provide the number alone.

Q: For CC(=O)N[C@H](C(=O)O)C(C)C , write its solubility (mole fraction).
Ans: 0.0128

----------
Test Conditions: in n-propanol, 323.15 K
Property Measured: solubility (mole fraction)
Kindly provide the number alone.

Q: For CC(=O)N[C@H](C(=O)O)C(C)C , write its solubility (mole fraction).
Ans: 0.171

----------
Test Conditions: in water, 303.15 K
Property Measured: solubility (mole fraction)
Kindly provide the number alone.

Q: For CC(=O)N[C@H](C(=O)O)C(C)C , write its solubility (mole fraction).
Ans: 0.00872

----------
Test Conditions: in n-propanol, 283.15 K
Property Measured: solubility (mole fraction)
Kindly provide the number alone.

Q: For CC(=O)N[C@H](C(=O)O)C(C)C , write its solubility (mole fraction).
Ans: 0.0449

----------
Test Conditions: in isobutanol, 283.15 K
Property Measured: solubility (mole fraction)
Kindly provide the number alone.

Q: For CC(=O)N[C@H](C(=O)O)C(C)C , write its solubility (mole fraction).
Ans: 0.0341

----------
Test Conditions: in 1,4-dioxane, 303.15 K
Property Measured: solubility (mole fraction)
Kindly provide the number alone.

Q: For CC(=O)N[C@H](C(=O)O)C(C)C , write its solubility (mole fraction).
Ans: 0.0495

----------
Test Conditions: in n-butanol, 303.15 K
Property Measured: solubility (mole fraction)

Q: For CC(=O)N[C@H](C(=O)O)C(C)C , write its solubility (mole fraction).
Ans: 0.0685

----------
Test Conditions: in 1,4-dioxane, 288.15 K
Property Measured: solubility (mole fraction)
Kindly provide the number alone.

Q: For CC(=O)N[C@H](C(=O)O)C(C)C , write its solubility (mole fraction).
Ans: 0.0324

----------
Test Conditions: in 1,4-dioxane, 313.15 K
Property Measured: solubility (mole fraction)

Q: For CC(=O)N[C@H](C(=O)O)C(C)C , write its solubility (mole fraction).
Ans: 0.0712

----------
Test Conditions: in 2-butanone, 303.15 K
Property Measured: solubility (mole fraction)
Kindly provide the number alone.

Q: For CC(=O)N[C@H](C(=O)O)C(C)C , write its solubility (mole fraction).
Ans: 0.0141
